Experiment: in vitro
Details: human

| Mol | CC50 |
| --- | --- |
| COc1ccc([C@@H]2CC(=O)c3c(O)cc(O)cc3O2)cc1O | > 400 µM |
| COc1c(O)cc2oc(-c3ccccc3)cc(=O)c2c1O | > 400 µM |
| O=C(O)[C@H]1O[C@@H](Oc2cc3oc(-c4ccc(O)cc4)cc(=O)c3c(O)c2O)[C@H](O)[C@@H](O)[C@@H]1O | > 400 µM |
